tested on: RBC ghost membrane 105 kDa protein (unidentified; disulfide-linked dimer, ~210 kDa non-reduced) (Homo sapiens); assay: filter; conditions: Scatchard on RBC ghosts, 1600 sites per cell; target assigned to 105 kDa protein by crosslinking

RESIDUE SEQUENCE | Kd / nM
AACTCAGTGGTAGGTAACGGTT [c56t] | 4
